# Assay target: beta-catenin/TCF4 engagement (Homo sapiens, UniProt P35222)
# Construct: expressed in transfected cells; host or cells: HEK293
# Sequence (P35222 1-781): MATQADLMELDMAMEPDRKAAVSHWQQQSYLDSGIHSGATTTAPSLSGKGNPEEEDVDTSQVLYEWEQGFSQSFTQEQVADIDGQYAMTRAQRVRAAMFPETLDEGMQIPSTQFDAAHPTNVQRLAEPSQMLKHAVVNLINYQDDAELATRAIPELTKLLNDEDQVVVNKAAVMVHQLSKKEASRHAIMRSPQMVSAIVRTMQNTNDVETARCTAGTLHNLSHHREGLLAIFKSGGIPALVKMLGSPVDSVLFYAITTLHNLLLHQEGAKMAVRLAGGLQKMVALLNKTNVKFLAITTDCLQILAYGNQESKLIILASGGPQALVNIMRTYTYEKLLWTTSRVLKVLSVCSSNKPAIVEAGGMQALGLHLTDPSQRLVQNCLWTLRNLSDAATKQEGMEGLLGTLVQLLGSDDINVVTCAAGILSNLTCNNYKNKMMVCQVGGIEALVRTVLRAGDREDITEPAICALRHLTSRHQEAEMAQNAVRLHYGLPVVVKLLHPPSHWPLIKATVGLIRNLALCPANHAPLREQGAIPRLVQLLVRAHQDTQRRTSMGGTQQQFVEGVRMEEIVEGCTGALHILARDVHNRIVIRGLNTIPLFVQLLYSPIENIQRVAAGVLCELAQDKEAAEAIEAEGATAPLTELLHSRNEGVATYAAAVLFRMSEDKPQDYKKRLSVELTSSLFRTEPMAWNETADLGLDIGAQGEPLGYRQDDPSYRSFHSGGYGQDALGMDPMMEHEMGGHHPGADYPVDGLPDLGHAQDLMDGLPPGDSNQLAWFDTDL
# Measurement notes: Nano-BRET target engagement assay (B-cat-Halo & TCF4-Luc in HEK293 cells)
# Type: cell-based
# Reported conditions: absolute IC50; read-out: NanoBRET Abs IC50
# key: entry, value: IC50

Compound	IC50 / µM
CC(=O)N1CCC[C@]12CC=CCCCC1(CCCC=CCCCOC(=O)N3CC[C@@](C(=O)N[C@@H](Cc4ccsc4)C(=O)N[C@@H](Cc4csc5ccccc45)C(=O)N[C@@H](CCC(N)=O)C(N)=O)(C3)NC(=O)[C@H](CC(N)=O)NC(=O)[C@H](Cc3ccccc3)NC(=O)[C@H](C)NC(=O)[C@H](C)NC(=O)[C@H](CN(CC(=O)O)Cc3ccccc3)NC(=O)[C@H](CC(=O)O)NC1=O)NC(=O)[C@H](CC(C)(C)C)NC(=O)[C@H](CC(=O)O)NC2=O (stereo partly drawn) [I-1635]	20.6
CC(=O)N1CCC[C@]12CC=CCCCC1(CCCC=CCCCOC(=O)N3CC[C@@](C(=O)N[C@@H](Cc4ccccc4C(F)(F)F)C(=O)N[C@@H](Cc4csc5ccccc45)C(=O)N[C@@H](CCC(N)=O)C(=O)N[C@@H](CC(C)C)C(=O)N[C@@H](Cc4ccc(O)cc4)C(N)=O)(C3)NC(=O)[C@H](CC(C)C)NC(=O)[C@H](Cc3ccccc3)NC(=O)[C@H](C)NC(=O)[C@H](C)NC(=O)[C@H](Cc3cccc(C(=O)O)c3)NC(=O)[C@H](CC(=O)O)NC1=O)NC(=O)[C@H](CC(C)(C)C)NC(=O)[C@H](CC(=O)O)NC2=O (stereo partly drawn) [I-2392]	8.6
CC(=O)N1CCC[C@]12CC=CCCCC1(CCCC=CCCCOC(=O)N3CC[C@@](C(=O)N[C@@H](Cc4ccsc4)C(=O)N[C@@H](Cc4csc5ccccc45)C(=O)N[C@@H](CCC(N)=O)C(N)=O)(C3)NC(=O)[C@H](Cc3ccccc3)NC(=O)[C@H](Cc3ccccc3)NC(=O)[C@H](C)NC(=O)[C@H](C)NC(=O)[C@H](CN(CC(=O)O)CC(F)(F)F)NC(=O)[C@H](CC(=O)O)NC1=O)NC(=O)[C@H](CC(C)(C)C)NC(=O)[C@H](CC(=O)O)NC2=O (stereo partly drawn) [I-848]	7

From: patent US20240116985A1
